Recorded values, source paper PMC11024197.

pKd reference
- TARGET ENTITY: T1, PEX13 SH3 domain (residues 261-346) (human, UniProt Q92968 261-346)
- T1 construct: 15N-labelled in the NMR titrations, unlabelled in ITC; source: E. coli BL21 (DE3), purified (Ni-NTA, SUMO cleavage, reverse Ni-NTA, SEC); not shown: His6-SUMO, N-terminal, cleaved
- T1 sequence (looked up): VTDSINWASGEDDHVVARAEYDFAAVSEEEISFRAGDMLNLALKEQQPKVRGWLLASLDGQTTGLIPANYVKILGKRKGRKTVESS
- PROTOCOL SUMMARY: ITC; PEX13 SH3 (35-48 µM) in the cell, titrated with peptide; 25 °C; 20 mM Tris pH 7.5, 50 mM NaCl; one-site binding model; triplicates
- MEASUREMENT CONTEXT: both partners purified
Please keep in mind that pKd is minus log10 of the molar concentration; only the number is needed.

* PEX13 C-terminal peptide (351-403) with the FxxxF motif replaced by the PEX5 W4 motif (three residues added before residue 351; also called FF/W4; source: E. coli BL21 (DE3), purified (Ni-NTA, SUMO cleavage, reverse Ni-NTA, SEC); not shown: His6-SUMO, N-terminal, cleaved) YGGQQQSFTNPTLTKGATVADSLDEQEAAWYDEYVETNKVPVAPDSIGKDGEKQDL | 5.19

# ---- query binder ----
// field: pKd; key: PEX13 C-terminal peptide (351-403) with WT FxxxF motif (three residues added before residue 351; main text and some legends say 350-403; also called PEX13 FxxxF; FxxxF peptide (350-403); source: E. coli BL21 (DE3), purified (Ni-NTA, SUMO cleavage, reverse Ni-NTA, SEC); not shown: His6-SUMO, N-terminal, cleaved) YGGQQQSFTNPTLTKGATVADSLDEQEAAFESVFVETNKVPVAPDSIGKDGEKQDL ; value = 4.57
